// data source = patent US9302999B2

Recorded measurements of Plant response rating, Galium, one per entry
System: galium (catchweed bedstraw, Galium aparine)
Assay: Test C pre-/postemergence: galium
Assay type: in vivo
Settings: Preemergence, 62 g ai/ha; scale of 0 to 100, 0 is no effect, 100 is complete control
Give a plain numeric answer without units written out.

The cases that follow already have their Plant response rating, Galium on record.
INSERT INTO results (smilesstructure, measuredvalue) VALUES
  ('CCc1nn(-c2ccc(C(F)(F)F)c(F)c2)nc1Oc1ccnc(C(F)(F)F)c1', 100),
  ('Fc1ccc(-n2nc(Cc3ccnc(C(F)(F)F)c3)c(OC(F)F)n2)cc1', 15),
  ('Cc1nn(-c2ccc(C(F)(F)F)cn2)nc1Oc1ccnc(C(F)(F)F)c1', 95);

Attention now shifts to the item below.
Entry Cc1nn(-c2ccc(C(F)(F)F)c(F)c2)nc1Oc1ccnc(C(F)(F)F)c1 has what Plant response rating, Galium?
100
